Tested on: HT-29 human colon adenocarcinoma cells
Assay Info: Tumor cell growth inhibition assay (Cell Titer Glo, cell viability), HT-29
Format: cell-based
Settings: HT-29 cells, 72 hours treatment
Quantity Kind: IC50 (µM)

I: CCOC(=O)CCNC(=O)C(C)c1ccc2cc(OC)ccc2c1 (centres unmarked) [IV]
II: CCOC(=O)C(NC(=O)C(C)c1ccc2cc(OC)ccc2c1)C(C)C (centres unmarked) [XI]
III: CCOC(=O)C(CCSC)NC(=O)C(C)c1ccc2cc(OC)ccc2c1 (centres unmarked) [XII]
Req: # order the molecules above by IC50, highest value first # list labels per requested ordering
Resp: I, III, II
(I: 123 µM, III: 49.3 µM, II: 29.4 µM)

I: COC(=O)C(CC(C)C)NC(=O)C(C)c1ccc2cc(OC)ccc2c1 (centres unmarked) [VII]
II: COC(=O)CC(NC(=O)C(C)c1ccc2cc(OC)ccc2c1)C(=O)OC (centres unmarked) [IX]
Req: Pick one, I or II : lowest reported IC50. Returns: label corresponding to the selected item.
Resp: I
(I: 34.5 µM, II: 121 µM)
